# EXPERIMENTAL_TARGET: PDE-5 (UniProt O76074)
REPORTED_PROPERTY: IC50 (nM)

Study these solved cases before continuing.
CCOCCn1nc(C(=O)NCCO)c2nc(N(C)C)nc(Nc3cc(C)ccn3)c21 :: 0.13
CCOCCn1nc(C(=O)NCCN(C)C)c2nc(N(C)C)nc(Nc3cc(C)ccn3)c21 :: 0.24
CCOCCn1nc(C(=O)NCCNC)c2nc(N(C)C)nc(Nc3cc(C)ccn3)c21 :: 0.4

I: CCNC(=O)c1nn(CCOCC)c2c(Nc3cc(C)ccn3)nc(NCC)nc12
II: CCOCCn1nc(C(=O)NCCOC)c2nc(N(C)C)nc(Nc3cc(C)ccn3)c21
Request: When I and II are compared, which has the higher number for IC50? Kindly give the label for the entry you pick.
Response: I

====

# EXPERIMENTAL_TARGET: UniProt:O76074
pIC50: −log10 of the molar value.
REPORTED_PROPERTY: pIC50

Study these solved cases before continuing.
CCOCCn1nc(C(=O)NC2CCNCC2)c2nc(N(C)C)nc(Nc3cc(C)ccn3)c21 :: 10.22
CCOCCn1nc(C(=O)NC)c2nc(N(C)C)nc(Nc3cc(C)ccn3)c21 :: 9.59

P: CCOCCn1nc(C(=O)NC)c2nc(N(C)[C@H]3CCN(C)C3)nc(Nc3cc(C)ccn3)c21
Q: CCOCCn1nc(C(=O)NCCC(=O)O)c2nc(N(C)C)nc(Nc3cc(C)ccn3)c21
Request: When P and Q are compared, which has the higher number for pIC50? Kindly give the label for the entry you pick.
Response: Q
(Q: 10.40, P: 9.38)
